Molecular target: Cellular tumor antigen p53 (Homo sapiens) (UniProt P04637)
Sequence (P04637 whole entry, looked up): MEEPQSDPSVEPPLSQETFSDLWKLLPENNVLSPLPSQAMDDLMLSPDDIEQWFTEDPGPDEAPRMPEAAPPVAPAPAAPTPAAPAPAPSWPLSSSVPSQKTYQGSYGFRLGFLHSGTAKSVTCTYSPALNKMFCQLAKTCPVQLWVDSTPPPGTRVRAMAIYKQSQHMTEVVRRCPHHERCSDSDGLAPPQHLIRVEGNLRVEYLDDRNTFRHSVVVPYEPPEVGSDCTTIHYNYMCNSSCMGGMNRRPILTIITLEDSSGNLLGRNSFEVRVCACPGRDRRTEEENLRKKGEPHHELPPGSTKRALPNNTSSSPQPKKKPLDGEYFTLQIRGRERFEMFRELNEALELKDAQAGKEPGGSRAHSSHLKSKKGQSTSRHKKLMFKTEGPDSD
Test: TOX21_p53_BLA_p4_ratio: Tox21 HCT-116 p53 Agonism Beta-lactamase Assay, Ratio, Phase 4 (AID 2283601)
Records with an inconclusive call do not appear. Calls of active or inactive are those of the source. How the source made its calls: active means hit-call score of the fitted dose curve at least 0.9, where 1 is the maximum; inconclusive means response in the unintended direction; inactive means score below 0.9.
Your answer must be one of the following: Y for active, N for inactive

- O=C(Nc1ccc(/C=C/c2ccc(NC(=O)c3cc(S(=O)(=O)O)c4cccnc4c3O)cc2S(=O)(=O)O)c(S(=O)(=O)O)c1)c1cc(S(=O)(=O)O)c2cccnc2c1O: N
- Oc1ccc(Cc2ccccc2)cc1: N
- O=C[C@H](O)[C@@H](O)[C@H](O)[C@H](O)CO: N
- O=C1C(=O)c2ncccc2-c2cccnc21: Y
- Oc1ccc(O)c2c(O)cccc12: N

Prompt: # fetch the recorded call for `Cc1cc(N)c2ccccc2[n+]1CCCCCCCCCC[n+]1c(C)cc(N)c2ccccc21` here
Response: N

Prompt: # fetch the recorded call for `COc1cc([C@@H]2c3cc4c(cc3[C@H](O)[C@H]3COC(=O)[C@H]23)OCO4)cc(OC)c1OC` here
Response: N

Prompt: # fetch the recorded call for `CCCCOC(=O)COc1ccc(Cl)cc1Cl` here
Response: N

----------
Read-out: Human Leukocyte Antigen - DR isotype (HLADR), HLA-DRA (gene 3122)
Experiment: BSK_BE3C_HLADR: BioMAP Diversity Plus: BE3C Assay for Human Leukocyte Antigen - DR isotype (HLADR) Biomarker Activity (AID 2283032)
Details: primary human bronchial epithelial cells; actives raise or lower the signal
Activity calls are given as the source filed them. Rule for the calls: active = hit-call score of the fitted dose curve at least 0.9, where 1 is the maximum; inactive = score below 0.9.
Your answer must be one of the following: Y = active, N = inactive

Check out these entries, answers already filled in.
- CCC[Si](OC(C)=O)(OC(C)=O)OC(C)=O: N
- Sc1nc2ccccc2s1: N

Prompt: # fetch the recorded call for `CCCCCCCCCCCCCCCCCC[N+](C)(C)C` here
Response: Y

Prompt: # fetch the recorded call for `Cc1cccnc1` here
Response: N

Prompt: # fetch the recorded call for `COc1cc(CNC(=O)CCCC/C=C/C(C)C)ccc1O` here
Response: N

Prompt: # fetch the recorded call for `CC[N+](CC)(CC(=O)Nc1c(C)cccc1C)Cc1ccccc1` here
Response: N

----------
Experiment: ATG_PXRE_CIS: Attagene CIS-FACTORIAL HepG2 Assay for human Pregnane X Receptor Element (PXRE) (AID 2282957)
Conditions: HepG2 Attagene CIS-FACTORIAL PXRE reporter, mRNA; actives raise or lower the signal
Procedure: ATG_CIS is a cell-based, multiplexed-readout assay that uses HepG2, a human liver cell line, with measurements taken at 24 hours after chemical dosing in a 24-well plate.ATG_PXRE_CIS is one of 52 assay component(s) measured or calculated from the ATG_CIS assay. […] This assay endpoint, ATG_PXRE_CIS, was analyzed with bidirectional fitting relative to DMSO as the negative control and baseline of activity. […]
The source made the active and inactive calls. Rule for the calls: active = hit-call score of the fitted dose curve at least 0.9, where 1 is the maximum; inactive = score below 0.9.
Your answer must be one of the following: active, inactive

Check out these entries, answers already filled in.
• CCCCCC1CCCC(=O)O1 (stereo not given) = active
• Cc1ccnc(N)c1 = active
• Cc1cc(-n2nc3ccc(Cl)cc3n2)c(O)c(C(C)(C)C)c1 = active
• CC/C=C\CCO = active

Prompt: # fetch the recorded call for CC1=C(CC(=O)O)c2cc(F)ccc2/C1=C\c1ccc(S(C)=O)cc1 (stereo not given) here
Response: active

Prompt: # fetch the recorded call for CCC(C)NC(N)=O (stereo not given) here
Response: inactive

Prompt: # fetch the recorded call for `C=CCOCC(CC)(CO)COCC=C` here
Response: active

Prompt: # fetch the recorded call for `Cc1cc(C)c(S(=O)(=O)O)cc1N=Nc1cc(S(=O)(=O)O)c2ccccc2c1O` here
Response: inactive

Prompt: # fetch the recorded call for `CCOC(=O)CC(=O)OCC` here
Response: inactive

Prompt: # fetch the recorded call for O=C(C1CCCCC1)N1CC(=O)N2CCc3ccccc3C2C1 (stereo not given) here
Response: active

----------
Test: TOX21_p53_BLA_p5_viability: Viability Assessment in the Tox21 HCT-116 p53 Agonism Beta-lactamase Assay, Phase 5 (AID 2283600)
Results filed as inconclusive are left out. Calls of active or inactive are those of the source. How the source made its calls: active means hit-call score of the fitted dose curve at least 0.9, where 1 is the maximum; inconclusive means response in the unintended direction; inactive means score below 0.9.
Your answer must be one of the following: active, inactive

• CC1(C)[C@@H](OC(=O)CCC(=O)O)CC[C@]2(C)[C@H]3C(=O)C=C4[C@@H]5C[C@@](C)(C(=O)O)CC[C@]5(C)CC[C@@]4(C)[C@]3(C)CC[C@@H]12 = inactive

Prompt: # fetch the recorded call for `CNC(=O)OCc1cccc(COC(=O)NC)n1` here
Response: inactive

Prompt: # fetch the recorded call for CN(C)CCC(c1ccccc1)c1ccccn1 (stereo not given) here
Response: inactive

Prompt: # fetch the recorded call for `CNCCC=C1c2ccccc2CCc2ccccc21` here
Response: inactive

Prompt: # fetch the recorded call for `C[N+](C)(C)CCCCCCCCCC[N+](C)(C)C` here
Response: inactive

Prompt: # fetch the recorded call for `CCC(=O)Oc1ccc2c(c1)CC[C@@H]1[C@@H]2CC[C@]2(C)[C@@H](OC(=O)CC)CC[C@@H]12` here
Response: inactive

----------
Target: Paired box protein Pax-6 (Homo sapiens)
Test: ATG_Pax6_CIS: Attagene CIS-FACTORIAL HepG2 Assay for human Paired Box 6 (PAX6) (AID 2282956)
Conditions: HepG2 CIS-FACTORIAL PAX6 reporter transcription, RNA readout; actives raise or lower the signal
The source made the active and inactive calls. How the source made its calls: active means hit-call score of the fitted dose curve at least 0.9, where 1 is the maximum; inactive means score below 0.9.
Your answer must be one of the following: YES for active, NO for inactive

* CCCCCCCCCC/C=C/C1CC(=O)OC1=O (centres undefined) | NO
* Cc1cccnc1 | NO
* CCCCCC1CCCC(=O)O1 (centres undefined) | NO

Prompt: # fetch the recorded call for `Cc1cc(-n2nc3ccc(Cl)cc3n2)c(O)c(C(C)(C)C)c1` here
Response: NO

Prompt: # fetch the recorded call for `CC/C=C\CCO` here
Response: NO

Prompt: # fetch the recorded call for O=C(C1CCCCC1)N1CC(=O)N2CCc3ccccc3C2C1 (centres undefined) here
Response: NO

Prompt: # fetch the recorded call for CC1=CCCC(C)(C)C12CCC(C)O2 (centres undefined) here
Response: NO

Prompt: # fetch the recorded call for `O=C1NC(=O)[C@@H]2CC=CC[C@H]12` here
Response: NO

----------
Assay: TOX21_p53_BLA_p3_viability: Viability Assessment in the Tox21 HCT-116 p53 Agonism Beta-lactamase Assay, Phase 3 (AID 2283593);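 further: cells exposed to compound for 16 h before reading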
Description: TOX21_p53_BLA_p3 is a cell-based, single-readout assay that uses HCT116, a human intestinal cell line, […] in a 1536-well plate.TOX21_p53_BLA_p3_viability is an assay readout measuring cellular ATP content and detected with CellTiter-Glo Luciferase-coupled ATP quantitation.TOX21_p53_BLA_p3_viability used a type of viability reporter where loss-of-signal activity can be used to understand changes in the cell viability. […]
Records with an inconclusive call do not appear. The source made the active and inactive calls. Rule for the calls: active = hit-call score of the fitted dose curve at least 0.9, where 1 is the maximum; inconclusive = response in the unintended direction; inactive = score below 0.9.
Your answer must be one of the following: 1 for active, -1 for inactive

Check out these entries, answers already filled in.
* Cn1cnc2c(F)c(Nc3ccc(Br)cc3Cl)c(C(=O)NOCCO)cc21 | -1
* C[N+]1(C)CCC(=C(c2ccccc2)c2ccccc2)CC1 | -1
* CCOc1ccc(N=C(C)Nc2ccc(OCC)cc2)cc1 | -1
* COC(=O)c1ccc(C(=O)O)cc1 | -1
* COC(=O)CC#N | -1
* COCC(O)CO (configuration not stated) | -1
* CC(=O)Oc1ccc(C(=C2CCCCC2)c2ccc(OC(C)=O)cc2)cc1 | -1
* Cc1ncc(C[n+]2csc(CCOP(=O)(O)OP(=O)(O)O)c2C)c(N)n1 | -1

Prompt: # fetch the recorded call for `NC(=O)n1c(O)c(C(=O)c2cccs2)c2cc(Cl)ccc21` here
Response: -1

Prompt: # fetch the recorded call for `C[C@@H](O)[C@H]1C(=O)N2C(C(=O)O)=C(SCCN=CN)C[C@H]12` here
Response: -1

Prompt: # fetch the recorded call for `Cc1cc(Br)ccc1NC(=O)CCl` here
Response: 1

Prompt: # fetch the recorded call for CC(=O)OC(C)OC(=O)C(C)c1ccc(-c2ccccc2)c(F)c1 (configuration not stated) here
Response: -1

----------
Assay: TOX21_p53_BLA_p3_viability: Viability Assessment in the Tox21 HCT-116 p53 Agonism Beta-lactamase Assay, Phase 3 (AID 2283593);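 further: cells exposed to compound for 16 h before reading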
Records with an inconclusive call do not appear. Active and inactive are the calls of the source. Rule for the calls: active = hit-call score of the fitted dose curve at least 0.9, where 1 is the maximum; inconclusive = response in the unintended direction; inactive = score below 0.9.
Your answer must be one of the following: true = active, false = inactive

Prompt: # fetch the recorded call for `c1ccc(-n2cnnn2)cc1` here
Response: false

----------
Biological target: Transcription factor Sp1 (Homo sapiens) (UniProt P08047)
Sequence (P08047 whole entry, looked up): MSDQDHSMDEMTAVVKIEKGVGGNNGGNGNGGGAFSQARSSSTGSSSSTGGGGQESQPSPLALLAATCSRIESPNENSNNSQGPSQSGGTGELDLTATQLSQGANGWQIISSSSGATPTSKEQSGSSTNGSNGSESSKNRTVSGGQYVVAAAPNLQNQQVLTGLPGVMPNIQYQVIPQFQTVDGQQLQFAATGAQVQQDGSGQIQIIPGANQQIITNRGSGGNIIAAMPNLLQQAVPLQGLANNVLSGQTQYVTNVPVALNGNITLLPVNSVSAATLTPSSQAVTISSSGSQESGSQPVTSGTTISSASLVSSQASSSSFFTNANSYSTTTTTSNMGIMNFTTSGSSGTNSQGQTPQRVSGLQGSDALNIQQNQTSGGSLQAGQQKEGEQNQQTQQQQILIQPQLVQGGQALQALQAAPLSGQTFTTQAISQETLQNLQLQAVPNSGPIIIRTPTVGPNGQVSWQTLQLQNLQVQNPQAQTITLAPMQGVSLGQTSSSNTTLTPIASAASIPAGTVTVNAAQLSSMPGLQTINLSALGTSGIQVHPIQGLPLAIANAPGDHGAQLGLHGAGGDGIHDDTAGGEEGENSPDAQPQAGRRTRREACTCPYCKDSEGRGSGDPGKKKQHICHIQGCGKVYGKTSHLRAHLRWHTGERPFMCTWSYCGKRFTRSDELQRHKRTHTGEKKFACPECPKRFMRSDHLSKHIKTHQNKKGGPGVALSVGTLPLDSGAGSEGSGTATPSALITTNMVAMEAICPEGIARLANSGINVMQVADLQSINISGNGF
Assay: ATG_Sp1_CIS: Attagene CIS-FACTORIAL HepG2 Assay for human Specificity Protein 1 (Sp1) (AID 2282961)
Settings: HepG2 Sp1 cis-reporter transcription, actives raise or lower the signal
Procedure: ATG_CIS is a cell-based, multiplexed-readout assay that uses HepG2, a human liver cell line, with measurements taken at 24 hours after chemical dosing in a 24-well plate.ATG_Sp1_CIS is one of 52 assay component(s) measured or calculated from the ATG_CIS assay. […] This assay endpoint, ATG_Sp1_CIS, was analyzed with bidirectional fitting relative to DMSO as the negative control and baseline of activity. […]
Activity calls are given as the source filed them. How the source made its calls: active means hit-call score of the fitted dose curve at least 0.9, where 1 is the maximum; inactive means score below 0.9.
Your answer must be one of the following: active, inactive

Check out these entries, answers already filled in.
- O=C(C(=O)c1ccccc1)c1ccccc1: inactive
- CC[N+](CC)(CC(=O)Nc1c(C)cccc1C)Cc1ccccc1 (tested in a mixture with another compound): inactive
- NC(=O)c1ccc(N)cc1: inactive
- CC(=O)c1nccs1: inactive
- CC(O)(P(=O)(O)O)P(=O)(O)O: inactive

Prompt: # fetch the recorded call for CCCCCCCCCC/C=C/C1CC(=O)OC1=O (stereo unspecified) here
Response: inactive

Prompt: # fetch the recorded call for `CC/C=C\CCCCCO` here
Response: inactive

Prompt: # fetch the recorded call for `COc1cccc(OC)c1C(=O)O` here
Response: inactive

Prompt: # fetch the recorded call for O=C1NC(=O)C2CC=CCC12 (stereo unspecified) here
Response: inactive

Prompt: # fetch the recorded call for CCOc1ccc2c(c1)C(C)CC(C)(C)N2 (stereo unspecified) here
Response: inactive

Prompt: # fetch the recorded call for `O=C(O)/C=C\C(=O)O` here
Response: inactive

Prompt: # fetch the recorded call for `N#CCN(CC#N)CCN(CC#N)CC#N` here
Response: inactive

Prompt: # fetch the recorded call for `c1cc[c]([Bi]([c]2ccccc2)[c]2ccccc2)cc1` here
Response: inactive

Prompt: # fetch the recorded call for `C=CCOC(=O)C(=C)C` here
Response: inactive

Prompt: # fetch the recorded call for `Cc1cc(C)c(S(=O)(=O)O)cc1N=Nc1cc(S(=O)(=O)O)c2ccccc2c1O` here
Response: inactive

Prompt: # fetch the recorded call for C=C(C)C(=O)OCC1CCCO1 (stereo unspecified) here
Response: inactive

Prompt: # fetch the recorded call for c1cc(N(CC2CO2)CC2CO2)ccc1Cc1ccc(N(CC2CO2)CC2CO2)cc1 (stereo unspecified) here
Response: active

Prompt: # fetch the recorded call for `CC=CC(=O)O` here
Response: inactive

Prompt: # fetch the recorded call for `Clc1ccccn1` here
Response: inactive

Prompt: # fetch the recorded call for CCCCCCC1CCCC(=O)O1 (stereo unspecified) here
Response: inactive

Prompt: # fetch the recorded call for `F[B-](F)(F)F` here
Response: inactive
